tested on: protease from Conidiobolus brefeldianus MTCC 5185; assay: Stability of protease in presence of organic solvents at 28° C.; format: physicochemical; conditions: crude protease, 20% (v/v) solvent, 5 h
measured-quantity: residual activity of protease, 5 h
Respond using a number only.

molecule	residual activity of protease, 5 h
CC(C)=O	95.66
CC#N	98.31
CC(C)O	100.29
CO	100.13

Now consider the entry below.
[ask] // returns reported residual activity of protease, 5 h for input C[S+](C)[O-] [DMSO, dimethylsulphoxide]
[reply] 98.12

###

As shown below, each of these compounds has a reported residual activity of protease, 12 h value.
tested on: protease from Conidiobolus brefeldianus MTCC 5185; experiment: Stability of protease in presence of organic solvents at 28° C.; assay type: physicochemical; settings: crude protease, 20% (v/v) solvent, 12 h
Respond using a number only.

# example entries with known answers
compound	measured
CO	52.64
CC(C)O	57.79
CC(C)=O	55.51

[ask] // returns reported residual activity of protease, 12 h for input C[S+](C)[O-] [DMSO, dimethylsulphoxide]
[reply] 54.55

[ask] // returns reported residual activity of protease, 12 h for input `CC#N`
[reply] 49.90
